assay: Pharmacokinetics of ZA in pig serum after IV or SC infusion with or without rHuPH20 (LC-MS-MS, non-compartmental analysis); format: in vivo; settings: female, Yorkshire, pig, serum, intravenous, […], animal ID 57, Study Group 1, IV 20 min infusion, ZA […], rHuPH20 0 U/mL, time 2 h; read-out: Zoledronic Acid Serum Concentration
Measure Name: concentration at 2 h (ng/mL)
Number in ng/mL, nothing else.

IN: Report concentration at 2 h for O=P(O)(O)C(O)(Cn1ccnc1)P(=O)(O)O please.
OUT: 15.4

---

assay: Phase 1 Stage 1 clinical pharmacokinetics of SC ZA co-administered with rHuPH20; type: in vivo, human; conditions: human, serum, sc, 0.0781 mg/kg, Subj 71; ZA 0.0781 mg/kg SC; inf […]; PH20 6000 U; read-out: Tmax
Measure Name: Tmax (min)
Number in min, nothing else.

IN: Report Tmax for O=P(O)(O)C(O)(Cn1ccnc1)P(=O)(O)O [ZA] please.
OUT: 52.8
